test system: Schistosoma mansoni schistosomula (NMRI); assay: phenotypic severity score (0-4); higher = more antischistosomal effect, active = 2 or more; conditions: 72 h; 10 µM;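 also: visual microscopic scoring of shape, motility and density changes versus 0.5% DMSO solvent controls, one point per descriptor, degeneracy or death scored 4, mean of duplicate wells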
Measure Name: phenotypic severity score
Answer field: number only, no words.

Compound	phenotypic severity score
C[C@@H]1[C@H](O)[C@@H](C)/C=C/C=C/C=C/C=C/C=C/C=C/C=C/[C@H](O[C@@H]2O[C@H](C)[C@@H](O)[C@H](N)[C@@H]2O)C[C@@H]2O[C@](O)(C[C@@H](O)C[C@@H](O)[C@H](O)CC[C@@H](O)C[C@@H](O)CC(=O)O[C@H]1C)C[C@H](O)[C@H]2C(=O)O	0
O=C(COc1cccc(F)c1)Nc1nc(-c2ccccn2)cs1	0
Nc1ncc(-c2ccc(C(F)(F)F)nc2)cc1-c1ccc(C(F)(F)F)nc1	0
Cc1cc(Cl)ccc1NC(=O)CCc1ccc(S(=O)(=O)NCC(C)C)cc1	0

Enter reported phenotypic severity score observed with Schistosoma mansoni schistosomula (NMRI) for CC(C)C(NC(=O)Cc1cccc2ccccc12)C(=O)Nc1cccc(C#N)c1 (stereo not given)
0

Observed phenotypic severity score on Schistosoma mansoni schistosomula (NMRI) for CC1=Nc2ccc(Cl)cc2C(O)(c2ccc(C)cc2)N1CCN1CCCCC1 (stereo not given) , please.
0
